assay: Liver function: plasma transaminases (ALT, AST) in C57BL/6 mice; format: in vivo, mouse; details: Week 3, 50 mg/kg/week
Oligonucleotides are written 5' to 3', each unit as a sugar letter and its base; * is a phosphorothioate linkage, no mark a phosphodiester; rarer units and linkages stand in square brackets, end groups in braces. Plain capitals give the bases only. e = 2'-O-(2-methoxyethyl) (MOE); [5mC] = 5-methylcytosine; d = 2'-deoxy (DNA)
Listing of recorded ALT levels by entry.

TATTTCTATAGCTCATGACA (antisense eT*eA*eT*eT*eT*d[5mC]*dT*dA*dT*dA*dG*d[5mC]*dT*d[5mC]*dA*eT*eG*eA*e[5mC]*eA) [ISIS 447144]
21 IU/L

Input: Dear colleague, please send me the reported ALT levels for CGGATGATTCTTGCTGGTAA (antisense e[5mC]*eG*eG*eA*eT*dG*dA*dT*dT*d[5mC]*dT*dT*dG*d[5mC]*dT*eG*eG*eT*eA*eA) [ISIS 447114] when you can.
Output: 21 IU/L

Input: Dear colleague, please send me the reported ALT levels for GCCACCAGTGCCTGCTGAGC (antisense eG*e[5mC]*e[5mC]*eA*e[5mC]*d[5mC]*dA*dG*dT*dG*d[5mC]*d[5mC]*dT*dG*d[5mC]*eT*eG*eA*eG*e[5mC]) [ISIS 447143] when you can.
Output: 31 IU/L

Input: Dear colleague, please send me the reported ALT levels for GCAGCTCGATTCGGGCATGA (antisense eG*e[5mC]*eA*eG*e[5mC]*dT*d[5mC]*dG*dA*dT*dT*d[5mC]*dG*dG*dG*e[5mC]*eA*eT*eG*eA) [ISIS 447118] when you can.
Output: 39 IU/L

* * *

assay: Body and organ weights in C57BL/6 mice; type: in vivo, mouse; conditions: Week 6, 50 mg/kg/week
Oligonucleotides are written 5' to 3', each unit as a sugar letter and its base; * is a phosphorothioate linkage, no mark a phosphodiester; rarer units and linkages stand in square brackets, end groups in braces. Plain capitals give the bases only. e = 2'-O-(2-methoxyethyl) (MOE); [5mC] = 5-methylcytosine; d = 2'-deoxy (DNA)
MEASURE: body weight
Answers without a unit are incomplete; give the number and then its unit.

Past entries and their recorded results:
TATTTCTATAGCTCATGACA (antisense eT*eA*eT*eT*eT*d[5mC]*dT*dA*dT*dA*dG*d[5mC]*dT*d[5mC]*dA*eT*eG*eA*e[5mC]*eA) [ISIS 447144]
28 g
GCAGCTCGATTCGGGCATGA (antisense eG*e[5mC]*eA*eG*e[5mC]*dT*d[5mC]*dG*dA*dT*dT*d[5mC]*dG*dG*dG*e[5mC]*eA*eT*eG*eA) [ISIS 447118]
27 g
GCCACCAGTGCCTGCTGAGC (antisense eG*e[5mC]*e[5mC]*eA*e[5mC]*d[5mC]*dA*dG*dT*dG*d[5mC]*d[5mC]*dT*dG*d[5mC]*eT*eG*eA*eG*e[5mC]) [ISIS 447143]
28 g

Then there is this sequence:
Input: Dear colleague, please send me the reported body weight for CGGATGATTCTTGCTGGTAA (antisense e[5mC]*eG*eG*eA*eT*dG*dA*dT*dT*d[5mC]*dT*dT*dG*d[5mC]*dT*eG*eG*eT*eA*eA) [ISIS 447114] when you can.
Output: 27 g

* * *

Listing of recorded percent inhibition of TTC39C mRNA by entry.
system: murine TTC39C mRNA; test: Dose-dependent antisense inhibition of murine TTC39C in mouse primary hepatocytes; format: cell-based; conditions: 1000.0 nM, electroporation, ~16 h
Oligonucleotides are written 5' to 3', each unit as a sugar letter and its base; * is a phosphorothioate linkage, no mark a phosphodiester; rarer units and linkages stand in square brackets, end groups in braces. Plain capitals give the bases only. e = 2'-O-(2-methoxyethyl) (MOE); [5mC] = 5-methylcytosine; d = 2'-deoxy (DNA)
Lab book: enter the figure in %, no units written.

ISIS 474617: 5-10-5 MOE gapmer antisense oligonucleotide targeting murine TTC39C (antisense eA*eG*eT*eT*e[5mC]*d[5mC]*d[5mC]*dT*dT*dA*dG*dG*dG*dA*dG*eG*e[5mC]*e[5mC]*eA*eG)
45

Input: Dear colleague, please send me the reported percent inhibition of TTC39C mRNA for ISIS 474540: 5-10-5 MOE gapmer antisense oligonucleotide targeting murine TTC39C (antisense e[5mC]*e[5mC]*eA*e[5mC]*eT*dG*dG*dG*dA*dG*dT*dT*dT*dA*dT*e[5mC]*eA*e[5mC]*eT*eG) when you can.
Output: 65

* * *

system: murine TTC39B mRNA; assay: Antisense inhibition of murine TTC39B in mouse primary hepatocytes, single dose; assay type: cell-based; details: 100 nM, cytofectin, ~24 h, vs untreated control; gapmers targeted to SEQ ID NO: 6
Oligonucleotides are written 5' to 3', each unit as a sugar letter and its base; * is a phosphorothioate linkage, no mark a phosphodiester; rarer units and linkages stand in square brackets, end groups in braces. Plain capitals give the bases only. e = 2'-O-(2-methoxyethyl) (MOE); [5mC] = 5-methylcytosine; d = 2'-deoxy (DNA)
MEASURE: % inhibition of murine TTC39B mRNA (%)
Lab book: enter the figure in %, no units written.

Past entries and their recorded results:
GGAGGTCCCCTGGCCACGGC (antisense eG*eG*eA*eG*eG*dT*d[5mC]*d[5mC]*d[5mC]*d[5mC]*dT*dG*dG*d[5mC]*d[5mC]*eA*e[5mC]*eG*eG*e[5mC]) [ISIS 447151]
65
TCTGGAAGCATGCTCAAAAT (antisense eT*e[5mC]*eT*eG*eG*dA*dA*dG*d[5mC]*dA*dT*dG*d[5mC]*dT*d[5mC]*eA*eA*eA*eA*eT) [ISIS 447124]
60

Input: Dear colleague, please send me the reported % inhibition of murine TTC39B mRNA for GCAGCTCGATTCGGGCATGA (antisense eG*e[5mC]*eA*eG*e[5mC]*dT*d[5mC]*dG*dA*dT*dT*d[5mC]*dG*dG*dG*e[5mC]*eA*eT*eG*eA) [ISIS 447118] when you can.
Output: 76

Input: Dear colleague, please send me the reported % inhibition of murine TTC39B mRNA for TGTTTCCAGAAAATCCAATA (antisense eT*eG*eT*eT*eT*d[5mC]*d[5mC]*dA*dG*dA*dA*dA*dA*dT*d[5mC]*e[5mC]*eA*eA*eT*eA) [ISIS 447115] when you can.
Output: 56

Input: Dear colleague, please send me the reported % inhibition of murine TTC39B mRNA for CATCATTTCCAGGGCTGGCA (antisense e[5mC]*eA*eT*e[5mC]*eA*dT*dT*dT*d[5mC]*d[5mC]*dA*dG*dG*dG*d[5mC]*eT*eG*eG*e[5mC]*eA) [ISIS 447125] when you can.
Output: 54

* * *

system: murine TTC39B mRNA; test: Dose-dependent antisense inhibition of murine TTC39B in mouse primary hepatocytes (Example 2); format: cell-based; settings: 25 nM, cytofectin, ~16 h
Oligonucleotides are written 5' to 3', each unit as a sugar letter and its base; * is a phosphorothioate linkage, no mark a phosphodiester; rarer units and linkages stand in square brackets, end groups in braces. Plain capitals give the bases only. e = 2'-O-(2-methoxyethyl) (MOE); [5mC] = 5-methylcytosine; d = 2'-deoxy (DNA)
Would you mind labelling by percent inhibition of TTC39B mRNA? At or over 40% is yes (1), under is no (0).

Observe how each entry below is paired with its result.
AATGCCACCACCTTCAACCA (antisense eA*eA*eT*eG*e[5mC]*d[5mC]*dA*d[5mC]*d[5mC]*dA*d[5mC]*d[5mC]*dT*dT*d[5mC]*eA*eA*e[5mC]*e[5mC]*eA) [ISIS 447138]
no (0)
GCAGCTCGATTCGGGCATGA (antisense eG*e[5mC]*eA*eG*e[5mC]*dT*d[5mC]*dG*dA*dT*dT*d[5mC]*dG*dG*dG*e[5mC]*eA*eT*eG*eA) [ISIS 447118]
yes (1)
TGAATGCTATTATTGGATCT (antisense eT*eG*eA*eA*eT*dG*d[5mC]*dT*dA*dT*dT*dA*dT*dT*dG*eG*eA*eT*e[5mC]*eT) [ISIS 447140]
no (0)

Input: Is percent inhibition of TTC39B mRNA for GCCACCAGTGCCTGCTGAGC (antisense eG*e[5mC]*e[5mC]*eA*e[5mC]*d[5mC]*dA*dG*dT*dG*d[5mC]*d[5mC]*dT*dG*d[5mC]*eT*eG*eA*eG*e[5mC]) [ISIS 447143] at or above 40%?
Output: no (0)

Input: Is percent inhibition of TTC39B mRNA for GGACTGCCTGCCATGGGTGC (antisense eG*eG*eA*e[5mC]*eT*dG*d[5mC]*d[5mC]*dT*dG*d[5mC]*d[5mC]*dA*dT*dG*eG*eG*eT*eG*e[5mC]) [ISIS 447146] at or above 40%?
Output: yes (1)

These measurements were taken from patent US20120270929A1.
